What Effective SDA Concentration at A450 0.15 was measured for each of the following?
# Target of assay: tetanus neurotoxin (TeNT), authentic tetanus holotoxin (Clostridium tetani, UniProt P04958 2-1315)
# Sequence (P04958 2-457 limits assumed, chain 1 of 2): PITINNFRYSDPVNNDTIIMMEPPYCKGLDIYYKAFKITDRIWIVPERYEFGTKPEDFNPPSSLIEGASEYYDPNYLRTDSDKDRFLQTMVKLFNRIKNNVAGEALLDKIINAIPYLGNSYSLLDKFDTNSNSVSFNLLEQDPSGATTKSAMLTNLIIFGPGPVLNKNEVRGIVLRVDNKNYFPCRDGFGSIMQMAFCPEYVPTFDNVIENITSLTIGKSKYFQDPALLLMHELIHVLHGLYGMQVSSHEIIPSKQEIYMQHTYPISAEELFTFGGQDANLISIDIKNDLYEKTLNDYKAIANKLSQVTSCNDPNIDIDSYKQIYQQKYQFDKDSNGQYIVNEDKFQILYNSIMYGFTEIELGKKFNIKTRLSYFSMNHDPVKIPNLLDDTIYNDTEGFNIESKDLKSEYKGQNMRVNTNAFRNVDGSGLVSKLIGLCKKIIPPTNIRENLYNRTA
# Sequence (P04958 458-1315 limits assumed, chain 2 of 2): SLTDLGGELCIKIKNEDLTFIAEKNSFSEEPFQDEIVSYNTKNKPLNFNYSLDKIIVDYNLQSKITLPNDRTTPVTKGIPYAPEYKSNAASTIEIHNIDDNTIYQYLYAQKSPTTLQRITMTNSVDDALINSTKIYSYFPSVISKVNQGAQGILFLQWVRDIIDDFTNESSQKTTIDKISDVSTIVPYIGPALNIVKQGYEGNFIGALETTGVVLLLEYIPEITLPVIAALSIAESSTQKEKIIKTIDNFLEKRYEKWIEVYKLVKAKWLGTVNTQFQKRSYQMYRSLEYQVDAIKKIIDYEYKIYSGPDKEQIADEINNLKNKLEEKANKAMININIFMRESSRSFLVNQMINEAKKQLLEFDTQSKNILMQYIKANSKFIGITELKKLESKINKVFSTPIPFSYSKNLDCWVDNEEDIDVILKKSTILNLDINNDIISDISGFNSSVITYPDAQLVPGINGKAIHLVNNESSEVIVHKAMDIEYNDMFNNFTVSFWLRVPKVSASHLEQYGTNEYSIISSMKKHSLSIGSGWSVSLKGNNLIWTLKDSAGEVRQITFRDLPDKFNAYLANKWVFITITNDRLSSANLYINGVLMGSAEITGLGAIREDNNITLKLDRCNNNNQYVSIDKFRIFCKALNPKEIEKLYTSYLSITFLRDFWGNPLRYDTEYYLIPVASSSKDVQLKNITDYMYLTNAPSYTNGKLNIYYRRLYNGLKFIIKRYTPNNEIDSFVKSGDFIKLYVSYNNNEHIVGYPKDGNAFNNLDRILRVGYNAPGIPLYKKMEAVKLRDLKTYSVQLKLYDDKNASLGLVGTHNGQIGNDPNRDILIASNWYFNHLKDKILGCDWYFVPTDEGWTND
# Procedure details: ELISA: directly coated TeNT, anti-his6 PO
One number for each entry, in ng/mL.

For every record below, what is its Effective SDA Concentration at A450 0.15?
1. SVT06L (VHH) VHH: QVQLQESGGGSVQAGGSLRLSCTASELSYDDYTIAWFRRAAGEGRVEDGEGVASITKSYDRAYDNKINYGHSVKGRFTISRDNAKNTVYLQMTDLLPSDTAVYYCALDITPPGGVGASLTEGFLFDYWGQGTQVTVSS
2. SVT06-GS2-SVG13M4-H6 (bispecific antibody) QVQLQESGGGSVQAGGSLRLSCTASELSYDDYTIAWFRRAAGEGRVEDGEGVASITKSYDRAYDNKINYGHSVKGRFTISRDNAKNTVYLQMTDLLPSDTAVYYCALDITPPGGVGASLTEGFLFDYWGQGTQVTVSSGGGGSGGGSEVQLVESGGGLVQPGGSLRLSCEASGFTFDDYGMSWVRQAPGKGLEWVSSLTPNGGSTYYADSVKGRFTISRDNAKNTLYLQMNSLKPEDTALYYCAKNSYYGAMDYWGQGTQVTVSSHHHHHH

[4.9, 3.4]

Each recorded value in this set is attributed to patent US20240376185A1.
